# test_system: APOL1 G1 Protein (Homo sapiens, UniProt O14791, I384M/S342G)
# Sequence (O14791 28-398 S342G/I384M): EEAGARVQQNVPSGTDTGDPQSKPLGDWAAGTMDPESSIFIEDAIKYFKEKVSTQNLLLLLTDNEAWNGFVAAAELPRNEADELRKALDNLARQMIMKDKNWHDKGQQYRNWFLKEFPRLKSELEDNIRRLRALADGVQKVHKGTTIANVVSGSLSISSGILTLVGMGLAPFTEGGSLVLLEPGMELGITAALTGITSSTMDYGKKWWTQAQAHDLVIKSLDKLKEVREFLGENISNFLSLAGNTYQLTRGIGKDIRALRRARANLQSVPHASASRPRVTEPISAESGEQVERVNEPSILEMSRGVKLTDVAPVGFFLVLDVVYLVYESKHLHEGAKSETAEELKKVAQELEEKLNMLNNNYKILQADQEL
# test_details: Trypanosoma brucei brucei lysis assay using APOL1 recombinant protein (AlamarBlue viability)
# Format: cell-based
# applied_conditions: Trypanosoma brucei brucei lysis, recombinant APOL1, AlamarBlue; read-out: Trypanosoma Assay (IC50)
# Excerpt: Trypanosoma brucei brucei is a blood stream parasite to which human, gorillas and baboon are immune due to the presence of the APOL1 protein in their HDL particles. […] Briefly, the AlamarBlue active compound, the resazurin, a blue, water soluble, non-toxic and cell permeable molecule, which can be followed by absorbance, is reduced by various metabolic pathways into resorufin, a red compound which can be followed by either absorbance or fluorescence. […]

compound	IC50
O=C(NC1(CCO)CC1)[C@H]1C[C@H](c2c(-c3ccc(F)cc3)[nH]c3c(F)cc(F)cc32)C1	250 to 1000 nM
CN(CCO)C(=O)[C@H]1C[C@H](c2c(-c3ccc(F)cc3)[nH]c3c(F)cc(F)cc32)C1	< 250 nM
CC(CO)(CO)NC(=O)[C@H]1C[C@H](c2c(-c3ccc(F)cc3)[nH]c3c(F)cc(F)cc32)C1	< 250 nM
CC(NC(=O)[C@H]1C[C@H](c2c(-c3ccc(F)cc3)[nH]c3c(F)cc(F)cc32)C1)c1ccnn1C (mixture of isomers)	> 1000 nM
